B1: library; a variant is named by its letters at N, in order (parent)
chain: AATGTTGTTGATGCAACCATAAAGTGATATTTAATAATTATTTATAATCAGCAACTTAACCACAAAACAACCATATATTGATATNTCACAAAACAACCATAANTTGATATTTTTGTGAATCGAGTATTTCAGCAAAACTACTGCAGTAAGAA

Variants of: B1
Assay: relative integration efficiency (T-LR orientation) vs wild-type transposon end (log2 (normalized fold change)); transposon end mutated: left end; higher = more efficient transposition
Condition parameters: with VchCAST RNA-guided transposition machinery (E. coli BL21(DE3) host, lacZ target)
Classify as follows. Reported relative integration efficiency (log2) greater than or equal to -0.1: True. Reported relative integration efficiency (log2) below: False.

Here are 5 variants together with their reported answers.
{"columns": ["Change", "Group"],
 "data": [
  ["CG T6A", "False"],
  ["CG G4T T5G T6G G7T", "False"],
  ["CG T48G C49A", "False"],
  ["CG T12G", "True"],
  ["CG A34C T35G A36C A37C", "True"]
]}

Form field: relative integration efficiency (log2) at least -0.1? Entry: CG A90T
False

Form field: relative integration efficiency (log2) at least -0.1? Entry: CG C89A A90C A91C A92C
False

Form field: relative integration efficiency (log2) at least -0.1? Entry: CG A29T
True
